System: DU-145
Assay: Antiproliferative activity against human DU145 cells after 96 hrs by SRB assay
Format: functional, cell-based
Conditions: DU-145, 96 h
pIC50: −log10 of the molar value.
Measured pIC50 of individual entries
PARAMETER_MEASURED: pIC50

| SMILES_REPR | READING_QUALIFIER | VALUE_OBSERVED |
| --- | --- | --- |
| COc1cc(C(=O)c2csc(-c3ccccc3)n2)cc(OC)c1OCc1ccccc1 | < | 5.00 |
| COc1cc(C(=O)c2csc(-c3ccccc3)n2)cc(OC)c1OC(=O)CCl | < | 5.00 |
| COCOc1c(OC)cc(C(=O)c2csc(-c3ccccc3)n2)cc1OC | = | 6.95 |
| COc1cc(-c2cccc3[nH]c(-c4c[nH]c5ccccc45)nc23)cc(OC)c1OC | = | 5.38 |
| COc1cc(C(=O)c2csc(-c3ccccc3)n2)cc(OC)c1OCCN1C(=O)c2ccccc2C1=O | = | 6.22 |
| COc1cc(-c2cccc3[nH]c(-c4ccccc4)nc23)cc(OC)c1OC | = | 5.11 |
| COc1cc(C(=O)c2c[nH]c(Nc3ccccc3)n2)cc(OC)c1OC | < | 4.52 |
| COc1cc(-c2cccc3[nH]c(-c4ccc5[nH]ccc5c4)nc23)cc(OC)c1OC | = | 7.24 |
| COc1cc(C(=O)c2csc(Nc3ccc4[nH]ccc4c3)n2)cc(OC)c1OC | = | 7.62 |
| COc1cc(C(=O)c2csc(-c3ccccc3)n2)cc(OC)c1OC(=O)C(F)(F)F | < | 5.00 |
| COc1cc(C(=O)c2csc(Nc3ccccc3)n2)cc(OC)c1OC | = | 7.15 |
| COc1cc(C(=O)c2csc(-c3ccccc3)n2)cc(OC)c1OCCN | = | 6.33 |
| COc1cc(-c2cccc3[nH]c(-c4n[nH]c5ccccc45)nc23)cc(OC)c1OC | = | 5.40 |

###

Experiment: Antiproliferative activity against mouse B16-F1 cells after 96 hrs by SRB assay
Format: functional, cell-based
Settings: B16-F1, 96 h
pIC50: −log10 of the molar value.
Measured pIC50 of individual entries

| SMILES_REPR | READING_QUALIFIER | pIC50 |
| --- | --- | --- |
| COc1cc(C(=O)c2c[nH]c(Nc3ccccc3)n2)cc(OC)c1OC | < | 4.52 |
| COc1cc(C(=O)c2csc(-c3ccccc3)n2)cc(OC)c1OCCN1C(=O)c2ccccc2C1=O | = | 5.89 |
| COc1cc(C(=O)c2csc(-c3ccccc3)n2)cc(OC)c1OC | = | 7.26 |
| COCOc1c(OC)cc(C(=O)c2csc(-c3ccccc3)n2)cc1OC | = | 7.72 |
| COc1cc(C(=O)c2csc(Nc3ccc4[nH]ccc4c3)n2)cc(OC)c1OC | = | 7.08 |

###

Assay: Antiproliferative activity against mouse B16-F1 cells after 96 hrs by SRB assay
Assay type: functional, cell-based
Conditions: B16-F1, 96 h
pIC50: −log10 of the molar value.
Measured pIC50 of individual entries
PARAMETER_MEASURED: pIC50

| SMILES_REPR | VALUE_OBSERVED |
| --- | --- |
| COc1cc(C(=O)c2csc(Nc3ccccc3)n2)cc(OC)c1OC | 7.19 |
| COc1cc(C(=O)c2csc(-c3ccccc3)n2)cc(OC)c1OC(=O)CCl | 5.49 |
| COc1cc(C(=O)c2csc(-c3ccccc3)n2)cc(OC)c1OC(=O)C(F)(F)F | 5.05 |
| COc1cc(C(=O)c2csc(-c3ccccc3)n2)cc(OC)c1OCCN | 6.85 |
| COc1cc(C(=O)c2csc(-c3ccccc3)n2)cc(OC)c1OCc1ccccc1 | 4.97 |
